B1: Advillin, residues 785 to 819; numbered along this chain, O75366 (parent)
chain: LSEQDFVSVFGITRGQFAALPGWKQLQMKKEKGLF

variants of: B1; assay: abundance fitness (aPCA) (normalised: wild type 0, dead -1); higher = more abundant; growth selection in yeast, the domain comes from the species named; conditions: Homo sapiens
Outcome label depends on abundance fitness relative to -0.3: at/above gives rule met, below gives rule not met.

mutantName: I12M
classLabel: rule met

mutantName: M28S
classLabel: rule not met

mutantName: Q27H
classLabel: rule met

mutantName: G22V
classLabel: rule met

mutantName: I12T
classLabel: rule not met

mutantName: P21R
classLabel: rule not met

mutantName: R14G
classLabel: rule not met

mutantName: F17Q
classLabel: rule not met

mutantName: W23H
classLabel: rule met

mutantName: G33R
classLabel: rule met

mutantName: R14W
classLabel: rule not met
